- assayed.system: C-CBL (residues 46-435) (Homo sapiens, UniProt P22681)
- Construct: Purified CBL-B (residues 36-427) and C-CBL (residues 46-435) proteins from baculovirus-infected insect cells; made in house; host or cells: baculovirus-infected insect cells
- procedure.summary: Ligand Displacement Assay (LDA), HTRF competitive binding against BODIPY-labeled fluorescent tracer, C-CBL
- conditions.used: geometric mean of the number of tests, read-out: C-CBL Ki (nM) GMean
Threshold-based label: Ki under 30 nM gives YES, Ki not under 30 nM gives NO.

Some solved entries appear below for comparison.
# molecule, cat
records = [
    ("Cn1cnnc1CC1(c2cccc(-c3n[nH]c4c(CN[C@@H]5CCOC5)nc(C(F)(F)F)cc34)c2)COC1", "NO"),
    ("C[C@@H](c1nc(C(F)(F)F)cc2c(-c3cccc(C4(Cc5nncn5C)COC4)c3)n[nH]c12)N1CCNC(=O)C1 (single isomer, unassigned)", "YES"),
    ("C[C@@H](N[C@@H]1CC[C@H](O)C1)c1nc(C(F)(F)F)cc2c(-c3cccc([C@H](c4nncn4C)C4CCC4)c3)n[nH]c12", "YES"),
    ("Cn1cnnc1[C@@H](c1cccc(-c2n[nH]c3c(CN[C@H]4C[C@H](O)C4)nc(C(F)(F)F)cc23)c1)C1CCC1", "NO"),
    ("CC(C)NC(C)c1nc(C(F)(F)F)cc2c(-c3cccc(C4(Cc5nncn5C)COC4)c3)n[nH]c12 (single isomer, unassigned) [Example C79]", "NO"),
]

Lookup: Is it true that Ki reported for C[C@H](O)CN[C@H](C)c1nc(C(F)(F)F)cc2c(-c3cccc([C@H](c4nncn4C)C4CCC4)c3)n[nH]c12 (single isomer, unassigned) is less than 30 nM?
Found: YES
